ASSAY DETAILS: yeast display, Sf9 membrane polyspecificity reagent, FACS + sequencing; frameworks hold sequencing errors
VALUE TYPE: polyreactivity (PSR sort gate)

Worked set:
QVQLVESGGGLVQAGGSLRLSCAASGRIFQRYAMGWYRQSPGKERELVAGITSSGGSTYYADSVKGRFTISRDNAKNTVYLQMNSLKPEDTAVSYCNAGGELCYYGYRAGCTTRSYDYWGQGTLVTVSS    low polyreactivity
QVQIVESGGGLVQAGGSLRLRCAASGRIIYKNAMGWYRQAPGKERELVAAITTSGGSTYYADSVKGRFTISRDNSKNTVYLEMNSLKPEDTAVYYCATRGHYRQTINYWGQGTQVTVSS    high polyreactivity
QVQLVESGGGLVQAGGSLRLSCAASGFIFQKYAMGWYRQAPGKERELVAAIRYDGGSTYYADSVKGRFTISRDNAKNTVYLQMNSLKPDDTAVYYCAAYGPRLLIYPPYRYNYWGQGTQVTVSS    high polyreactivity
QVQLVESGGGIVQAGGSLRLSCAASGIIFDINSMGWYRQAPGKERELVAAITTSVDSTYYAHSVKGRFTISRDNAKNTVYLQMYSLQPEDTAVYYCSVSFVQFTQYDYWGQGTQVTVSS    low polyreactivity

Look at each sequence and report its polyreactivity (PSR sort gate).
1. QVQLVESAGGLVQAGGSLSISCAASGLTLTRNAMGWYRQAPGKERELVAAISGRGGSTYYADSVKGRFTISRDNAKNTVYLQMNSLKPEDTAVYYCAATVQYSPIYDYWGQGTQVTVSS
2. QVQLVESGGGLVQAGGSLRLSCAASGSIFGSNMGWYRQAPGKERELVAAISSRGGRTYYADSVKGRFTISRDNAKNTVYLQMNSLKPEDTAVYYCATRTFRGCRGYEYWGQGTQVTVSS
3. QVQLVESGGGLVQAGGSLRLSCAASGFIFRPNAMGWYRQAPGKERELVAAITRDGDRTYYADSVKGRFTISRDNAKNTVYLQMNSLKPEETAVYYCAADVIQWWTRYYTWEYDYWGQGTQVTVSS
4. QVQIVESGGGLVQAGGSLRLRCAASGRIFAYYAMGWYRQAPGKERELVAAISRSGVSTYYADSVKGRFTISRDNAKNTVYLQMNSLKPEDTAVYYCAARWRSGFTSGDYWGQGTQVTVSS
5. QVHLVESGGGLVQAGGSLRLNCAASGRTFTEYAMGWYTPAPGKERELVAAITTVGSTYYADSVKGRFTISRDNAKNTVDIQMNSQKPEDTAVYYCDVERDYWTKASYYWGQGTQVTVSS
6. QVQLVESGGGLVQAGGSLRLSCAASGRIFVANAMGWYRQAPGKERELVAAISGRGSRTYYADSVKGRFTISRDNAKNTVYLQMNSLKPEDTAVYYCAARYRYDGRYDYWGQGTQVTVSS

1: high polyreactivity; 2: high polyreactivity; 3: low polyreactivity; 4: low polyreactivity; 5: low polyreactivity; 6: high polyreactivity

Consider QVQLVESGGGLVQAGGSLRLSCAASGRISGRNAMGWYRQAPGKERELVAVITRGDTNYADSVKGRFTISRDNAKNTVYLQMNSLKPEDTAVYYCAKEPLASGWGYDYWGQGTQVTVSS . Its measured polyreactivity (PSR sort gate) is high polyreactivity

###

ASSAY DETAILS: yeast display, Sf9 membrane polyspecificity reagent, FACS + sequencing; frameworks hold sequencing errors
VALUE TYPE: polyreactivity (PSR sort gate)

Before answering, review these 4 worked examples.
QVQLVESGGGLVQAGGSLRLSCAASGRTFYVNARGWYREAPGKERELVATISRGTRTYYADSVKGRFTISRDNAKNTVYLQMNSLIPEDTAVYYCAADARPYESPYYYWGQGTQVTVSS    high polyreactivity
QVQLVESGGGFVQAGGSLRLSCAAYGSISVGYTMGWYIQAPGKEREFVAVITGTGGRTRYADSVKGRFTISRDNAKNTVYLQMNSLKPEDTAVYYCAAKIRWRGALYDYWGQGTQVTVSS    high polyreactivity
QVQLVESGGGLVQAGGSLRLSCASSGPIFVYKVKGWYRQAPGKERELVAAISWGTGSTYADSVKGRFTISRDNAKNTVYLQMYSLKPEDTAVYYCAAESFIPPYDHWGQGTQVTGSS    low polyreactivity
QVQLVESGGGLVQAGGSLRLSCAASGRILTSNAMGWSRQAPGKERELVAAISWSGGSTYYADSVKGRFTISRDNAKNTVYLQMNSLKPEDTAVYYCAAPFTTTFDYWGQGTQVTVSS    low polyreactivity

Next, consider the following sequence.
Kindly note the recorded polyreactivity (PSR sort gate) for QVQLEESGGGLVHAGGSLPLSCAASGGTFYKYAMGSYRQAPGKERELVARISRCGSTYYADSVNGRFTISRDNAKNTVYLQMNSLKPEDTAVYYCAKRWFAGWPIVVPYNYWGQGTQVTVSS , which is high polyreactivity
